Biological target: ribonucleoprotein (RNP)
Assay: AtheNA Multi-Lyte ANA, Ab at 12.5 ug/ml;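 note: monoclonal antibodies screened for binding to a panel of nuclear autoantigens (SSA, SSB, Sm, RNP, Scl-70, Jo-1, dsDNA, CentB, histones), with anti-HIV and anti-RSV antibodies as controls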
I'd appreciate it if you could supply AtheNA signal values for the items below.
One number for each entry.

Answered cases to consult:
binder="Ab7968 (antibody, IgG1, V domains shown, Recombinant human antibody with IgG1 heavy chain backbone and kappa light chain constant; they begin at LVESGGG and MTQSP; also called mAb 7968; mAb7968) VH: LVESGGGVVQPGRSLRLSCAASGFTFSRYGMHWVRQAPGKGLEWVAVMSYDGSTKYYADSVKGRFAISRDNPKNTLFLQMNSLRPDDTAVYYCAKGGAAAAVMDVWGKGTTVTVSS VL: MTQSPDSLTVSLGERATISCKSSQRLLYSSNNKNYLAWYQQKPGQPPKLLMYWASTRESGVPDRFSGSGSGTDFSLTISSLQAEDVAVYYCQQYYNPPWTFGQGTKVEVK" readout_type="AtheNA signal" assay_result=7
binder="Ab7962/293i (antibody, V domains shown, Recombinant human antibody with IgG1 heavy chain backbone and kappa light chain constant (IgM in the donor B cell); they begin at LVESGGG and MTQSL; also called clone 27; pH007962/pK005996) VH: LVESGGGLVQPGGSLRLSCAASGFTFSSYEMNWVRQAPGKGLEWVSYISSSGSTIYYADSVKGRFTISRDNAKNSLYLQMNSLRAEDTAVYYCARVEQLAPSPYMDVWGKGTTVTVSS VL: MTQSLDSLTVSLGERATINCKSSQSLLYTSNNKNYLAWYQQKSGQPPKLLIYWASIRDSGVPDRFSGSGSATDFTLTINNLQAEDVAVYFCQQYYKTPLTFGGGTKVEVR" readout_type="AtheNA signal" assay_result=3

AtheNA signal recorded for this binder, Ab7961/293i (antibody, IgG1, V domains shown, Recombinant human antibody with IgG1 heavy chain backbone and kappa light chain constant; they begin at LVESGGG and MTQSP; also called mAb 7961; clone 24) VH: LVESGGGVVQPGKSLRLSCVASGFTFSSYGMHWVRQAPGKGLEWVAVMSFDGKTKYYADSVKGRFTISRDNPKNTLYLQMNSLRSEDTAVYYCAKGGAAAAVFDSWGQGILLTVSS VL: MTQSPNSLAVSLGGRATINCKTSQSILYRSNNKNYLAWYQHKSGQPPKLLIYWASTRESGVPDRFSGSGSRTDFTLTISGLQAEDVAVYYCQQYYNPPWTFGQGTKVEIK , is 6
